Property: IC50; scope: individual compounds
# assayed-system: PBP3 from Pseudomonas aeruginosa (PAO1) (Pseudomonas aeruginosa)
# Sequence (G3XD46 whole entry): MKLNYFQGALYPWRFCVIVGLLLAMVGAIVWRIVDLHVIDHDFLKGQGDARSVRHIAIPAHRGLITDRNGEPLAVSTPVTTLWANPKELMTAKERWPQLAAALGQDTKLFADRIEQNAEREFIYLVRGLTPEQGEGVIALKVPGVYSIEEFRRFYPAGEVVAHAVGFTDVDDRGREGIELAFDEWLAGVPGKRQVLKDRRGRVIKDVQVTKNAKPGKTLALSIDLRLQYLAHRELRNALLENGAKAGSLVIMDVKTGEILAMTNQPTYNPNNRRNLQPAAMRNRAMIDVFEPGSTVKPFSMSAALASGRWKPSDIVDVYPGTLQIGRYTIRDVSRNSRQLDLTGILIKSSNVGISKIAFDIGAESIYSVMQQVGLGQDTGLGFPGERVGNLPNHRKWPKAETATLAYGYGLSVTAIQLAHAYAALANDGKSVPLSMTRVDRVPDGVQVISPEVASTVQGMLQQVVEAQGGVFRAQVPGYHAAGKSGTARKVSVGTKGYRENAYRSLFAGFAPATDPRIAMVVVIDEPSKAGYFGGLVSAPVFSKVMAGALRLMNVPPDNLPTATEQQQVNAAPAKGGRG
# procedure-text: Bocillin-FL fluorescence polarization competition binding, P. aeruginosa PBP3
# recorded-conditions: Binding affinity to P. aeruginosa PBP3; fluorescence polarization competition binding assay using Bocillin-FL; read-out: P. aeruginosa PBP3 Potency

{"compound": "O=C(NCCS(=O)(=O)N1CCN(C(=O)NC(C(=O)N[C@H]2Cc3ccc(F)c(C(=O)O)c3OB2O)c2cc(F)c(O)c(O)c2Cl)C1=O)c1cccnc1 (stereo partly drawn)", "assayed-system": "PBP3 from Pseudomonas aeruginosa (PAO1) (Pseudomonas aeruginosa)", "IC50": "< 10 µM"}
{"compound": "O=C(NCCCN1CCN(C(=O)NC(C(=O)N[C@H]2Cc3ccc(F)c(C(=O)O)c3OB2O)c2cc(F)c(O)c(O)c2Cl)C(=O)C1=O)c1cc(F)c(F)c(O)c1F (stereo partly drawn)", "assayed-system": "PBP3 from Pseudomonas aeruginosa (PAO1) (Pseudomonas aeruginosa)", "IC50": "< 10 µM"}

Continue with the compound presented below.
Ask: Name the reported IC50 value associated with the compound O=C(NCCCS(=O)(=O)N1CCN(C(=O)NC(C(=O)N[C@H]2Cc3ccc(F)c(C(=O)O)c3OB2O)c2cc(F)c(O)c(O)c2Cl)C1=O)c1cccnc1 (stereo partly drawn)
Reply: < 10 µM
